Where do these numbers come from? They come from patent US20080058263A1.

- Study Target: T1, VEGFR-2-Fc (UniProt P35968 20-322)
- T1 construct: domain: first 3 Ig domains; conditioned supernatant of 293T cells; also called VEGFR-2-Fc fusion protein; not shown: Fc fragment of the pIg vector
- T1 sequence (P35968 20-322): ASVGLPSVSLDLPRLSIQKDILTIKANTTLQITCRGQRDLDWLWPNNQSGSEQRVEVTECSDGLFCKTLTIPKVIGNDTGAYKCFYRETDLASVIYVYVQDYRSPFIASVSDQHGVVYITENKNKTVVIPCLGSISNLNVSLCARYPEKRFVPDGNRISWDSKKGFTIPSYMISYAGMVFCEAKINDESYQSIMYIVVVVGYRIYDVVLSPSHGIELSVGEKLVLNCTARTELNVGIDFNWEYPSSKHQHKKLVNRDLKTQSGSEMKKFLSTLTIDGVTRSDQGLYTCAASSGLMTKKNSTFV
- Assay Text: receptor-Fc IP

Binder: 24-1 (ligand) AHYNTEILKSIDNEWRKTQCMPREVCIDVGKEFGVATNTFFKPSCVPLMRCGGCCNDEGLECVPTEESNITMQIMRIKPHQGQHIGEMSFLQHNKCECRPKKD
binding result: no binding

Binder: 24-7 (ligand) AHYNTEILKSIDNEWRKTQCMPREVCIDVGKEFGVATNTFFKPSCVPLMRCGGCCNSEGLQCVPTEESNITMQIMRIKPHQGQHIGEMSFANHTSCRCMSKLD
binding result: no binding
